Test system: STREPTOCOCCUS BOVIS A-5169
method notes: In vitro antibacterial activity, MIC, BHI agar dilution
Format: cell-based
condition parameters: S. bovis A-5169, unit assumed
We begin with a simple list: items and their reported MIC.
Value expressed in µg/mL; do not type the unit.

Sample answers from the record:
INSERT INTO assay_data (molecule, subject_of_test, recorded_value) VALUES
  ('CC[C@H]1OC(=O)[C@H](C)C(=O)[C@H](C)[C@@H](O[C@@H]2O[C@H](C)C[C@H](N(C)C)[C@H]2O)[C@](C)(OC)C[C@@H](C)C2=NC[C@H](CCCc3ccccc3)N3C(=O)O[C@@]1(C)[C@H]3[C@H]2C [Example 40]', 'STREPTOCOCCUS BOVIS A-5169', 0.02),
  ('CCC1OC(=O)C(C)C(=O)C(C)C(OC2OC(C)CC(N(C)C)C2O)C(C)(OC)CC(C)C2=NC(COCc3cc(OC)cc(OC)c3)CN3C(=O)OC1(C)C3C2C (stereo not shown) [Example 100]', 'STREPTOCOCCUS BOVIS A-5169', 0.01);

The record that follows has no MIC shown yet.
Give its MIC value. Item: CC[C@H]1OC(=O)[C@H](C)C(=O)[C@H](C)[C@@H](O[C@@H]2O[C@H](C)C[C@H](N(C)C)[C@H]2O)[C@](C)(OC)C[C@@H](C)C2=NC3CCCC3N3C(=O)O[C@@]1(C)[C@H]3[C@H]2C (stereo partly shown) [Example 107]
0.01

* * *

Test system: STREPTOCOCCUS BOVIS A-5169
method notes: In vitro antibacterial activity, MIC, BHI agar dilution
Format: cell-based
condition parameters: S. bovis A-5169, unit assumed
measurement label: MIC (mg/L)
Value expressed in mg/L; do not type the unit.

Sample answers from the record:
INSERT INTO measurements (molecule, subject_of_test, measurement_label, recorded_value) VALUES
  ('CC[C@H]1OC(=O)[C@H](C)C(=O)[C@H](C)[C@@H](O[C@@H]2O[C@H](C)C[C@H](N(C)C)[C@H]2O)[C@](C)(OC)C[C@@H](C)C2=NC[C@H](COCc3ccc(F)cc3)N3C(=O)O[C@@]1(C)[C@H]3[C@H]2C', 'STREPTOCOCCUS BOVIS A-5169', 'MIC', 0.02),
  ('CCC1OC(=O)C(C)C(=O)C(C)C(OC2OC(C)CC(N(C)C)C2O)C(C)(OC)CC(C)C2=NC(CN3CCCCC3)CN3C(=O)OC1(C)C3C2C (centres unmarked)', 'STREPTOCOCCUS BOVIS A-5169', 'MIC', 0.01),
  ('CC[C@H]1OC(=O)[C@H](C)C(=O)[C@H](C)[C@@H](O[C@@H]2O[C@H](C)C[C@H](N(C)C)[C@H]2O)[C@](C)(OC)C[C@@H](C)C2=N[C@H](COCc3ccccc3F)CN3C(=O)O[C@@]1(C)[C@H]3[C@H]2C', 'STREPTOCOCCUS BOVIS A-5169', 'MIC', 0.01),
  ('CC[C@H]1OC(=O)[C@H](C)C(=O)[C@H](C)[C@@H](O[C@@H]2O[C@H](C)C[C@H](N(C)C)[C@H]2O)[C@](C)(OC)C[C@@H](C)C2=NC3CN(CC(OC)OC)CC3N3C(=O)O[C@@]1(C)[C@H]3[C@H]2C (some centres unmarked)', 'STREPTOCOCCUS BOVIS A-5169', 'MIC', 0.1),
  ('CCC1OC(=O)C(C)C(=O)C(C)C(OC2OC(C)CC(N(C)C)C2O)C(C)(OC)CC(C)C2=NCC(CCc3ccccc3)N3C(=O)OC1(C)C3C2C (centres unmarked)', 'STREPTOCOCCUS BOVIS A-5169', 'MIC', 0.01),
  ('CC[C@H]1OC(=O)[C@H](C)C(=O)[C@H](C)[C@@H](O[C@@H]2O[C@H](C)C[C@H](N(C)C)[C@H]2O)[C@](C)(OC)C[C@@H](C)C2=N[C@@H](COCc3ccccc3)CN3C(=O)O[C@@]1(C)[C@H]3[C@H]2C', 'STREPTOCOCCUS BOVIS A-5169', 'MIC', 0.01),
  ('CC[C@H]1OC(=O)[C@H](C)C(=O)[C@H](C)[C@@H](O[C@@H]2O[C@H](C)C[C@H](N(C)C)[C@H]2O)[C@](C)(OC)C[C@@H](C)C2=NC3CN(CCN(C)C)CC3N3C(=O)O[C@@]1(C)[C@H]3[C@H]2C (some centres unmarked)', 'STREPTOCOCCUS BOVIS A-5169', 'MIC', 0.05),
  ('CCC1OC(=O)C(C)C(=O)C(C)C(OC2OC(C)CC(N(C)C)C2O)C(C)(OC)CC(C)C2=NC(CN)CN3C(=O)OC1(C)C3C2C (centres unmarked)', 'STREPTOCOCCUS BOVIS A-5169', 'MIC', 0.02),
  ('CC[C@H]1OC(=O)[C@H](C)C(=O)[C@H](C)[C@@H](O[C@@H]2O[C@H](C)C[C@H](N(C)C)[C@H]2O)[C@](C)(OC)C[C@@H](C)C2=N[C@@H]3COC[C@@H]3N3C(=O)O[C@@]1(C)[C@H]3[C@H]2C', 'STREPTOCOCCUS BOVIS A-5169', 'MIC', 0.05),
  ('CC[C@H]1OC(=O)[C@H](C)C(=O)[C@H](C)[C@@H](O[C@@H]2O[C@H](C)C[C@H](N(C)C)[C@H]2O)[C@](C)(OC)C[C@@H](C)C2=NC3CN(CCc4cccc([N+](=O)[O-])c4)CC3N3C(=O)O[C@@]1(C)[C@H]3[C@H]2C (some centres unmarked)', 'STREPTOCOCCUS BOVIS A-5169', 'MIC', 0.01);

Give its MIC value. Item: "CC[C@H]1OC(=O)[C@H](C)C(=O)[C@H](C)[C@@H](O[C@@H]2O[C@H](C)C[C@H](N(C)C)[C@H]2O)[C@](C)(OC)C[C@@H](C)C2=NC[C@H](COCc3ccc(OC)cc3)N3C(=O)O[C@@]1(C)[C@H]3[C@H]2C"
0.1

* * *

We begin with a simple list: items and their reported MIC.
Tested on: STAPHYLOCOCCUS AUREUS CMX 553
method notes: In vitro antibacterial activity, MIC, BHI agar dilution
Type: cell-based
condition parameters: S. aureus CMX 553, unit assumed
Value expressed in µg/mL; do not type the unit.

INSERT INTO assay_data (item_smiles, subject_of_test, measurement_label, units_of_measure, recorded_value) VALUES
  ('CC[C@H]1OC(=O)[C@H](C)C(=O)[C@H](C)[C@@H](O[C@@H]2O[C@H](C)C[C@H](N(C)C)[C@H]2O)[C@](C)(OC)C[C@@H](C)C2=N[C@@H]3COC[C@@H]3N3C(=O)O[C@@]1(C)[C@H]3[C@H]2C', 'STAPHYLOCOCCUS AUREUS CMX 553', 'MIC', 'µg/mL', 0.78);

The record that follows has no MIC shown yet.
Give its MIC value. Item: "CC[C@H]1OC(=O)[C@H](C)C(=O)[C@H](C)[C@@H](O[C@@H]2O[C@H](C)C[C@H](N(C)C)[C@H]2O)[C@](C)(OC)C[C@@H](C)C2=N[C@H](COCc3cccc(Br)c3)CN3C(=O)O[C@@]1(C)[C@H]3[C@H]2C"
0.05

* * *

System: STREPTOCOCCUS PYOGENES PIU 2548
method notes: In vitro antibacterial activity, MIC, BHI agar dilution
Format: cell-based
condition parameters: S. pyogenes PIU 2548, unit assumed
MIC strictly less than 0.4 µg/mL = 1. Otherwise 0.

INSERT INTO results (compound, subject_of_test, assigned_label) VALUES
  ('CC[C@H]1OC(=O)[C@H](C)C(=O)[C@H](C)[C@@H](O[C@@H]2O[C@H](C)C[C@H](N(C)C)[C@H]2O)[C@](C)(OC)C[C@@H](C)C2=NC3CN(CCOC)CC3N3C(=O)O[C@@]1(C)[C@H]3[C@H]2C (some centres unmarked)', 'STREPTOCOCCUS PYOGENES PIU 2548', 0),
  ('CC[C@H]1OC(=O)[C@H](C)C(=O)[C@H](C)[C@@H](O[C@@H]2O[C@H](C)C[C@H](N(C)C)[C@H]2O)[C@](C)(OC)C[C@@H](C)C2=N[C@@H]3CN(CCc4ccccc4)C[C@@H]3N3C(=O)O[C@@]1(C)[C@H]3[C@H]2C', 'STREPTOCOCCUS PYOGENES PIU 2548', 0),
  ('CCC1OC(=O)C(C)C(=O)C(C)C(OC2OC(C)CC(N(C)C)C2O)C(C)(OC)CC(C)C2=NCC(CCc3ccccc3)N3C(=O)OC1(C)C3C2C (centres unmarked)', 'STREPTOCOCCUS PYOGENES PIU 2548', 1),
  ('CC[C@H]1OC(=O)[C@H](C)[C@@H](O[C@H]2C[C@@](C)(OC)[C@@H](O)[C@H](C)O2)[C@H](C)[C@@H](O[C@@H]2O[C@H](C)C[C@H](N(C)C)[C@H]2O)[C@@H](C)C[C@@H](C)C2=NCCN3C(=O)O[C@@]1(C)[C@H]3[C@H]2C', 'STREPTOCOCCUS PYOGENES PIU 2548', 0),
  ('CC[C@H]1OC(=O)[C@H](C)C(=O)[C@H](C)[C@@H](O[C@@H]2O[C@H](C)C[C@H](N(C)C)[C@H]2O)[C@](C)(OC)C[C@@H](C)C2=NC[C@H](Cc3ccc(OCc4ccccc4)cc3)N3C(=O)O[C@@]1(C)[C@H]3[C@H]2C', 'STREPTOCOCCUS PYOGENES PIU 2548', 0);

hey, is MIC for "CC[C@H]1OC(=O)[C@H](C)C(=O)[C@H](C)[C@@H](O[C@@H]2O[C@H](C)C[C@H](N(C)C)[C@H]2O)[C@](C)(OC)C[C@@H](C)C2=N[C@H](COCc3ccccc3Cl)CN3C(=O)O[C@@]1(C)[C@H]3[C@H]2C" lower than 0.4 µg/mL or not?
1

Now consider C=CCN1CC2N=C3[C@H](C)C[C@@](C)(OC)[C@H](O[C@@H]4O[C@H](C)C[C@H](N(C)C)[C@H]4O)[C@@H](C)C(=O)[C@@H](C)C(=O)O[C@H](CC)[C@@]4(C)OC(=O)N(C2C1)[C@@H]4[C@H]3C (some centres unmarked) and answer again.
0

Now consider "CC[C@H]1OC(=O)[C@H](C)C[C@H](C)[C@@H](O[C@@H]2O[C@H](C)C[C@H](N(C)C)[C@H]2O)[C@](C)(OC)C[C@@H](C)C2=NCCN3C(=O)O[C@@]1(C)[C@H]3[C@H]2C" and answer again.
0

Now consider CC[C@H]1OC(=O)[C@H](C)C(=O)[C@H](C)[C@@H](O[C@@H]2O[C@H](C)C[C@H](N(C)C)[C@H]2O)[C@](C)(OC)C[C@@H](C)C2=NC3CNCC3N3C(=O)O[C@@]1(C)[C@H]3[C@H]2C (some centres unmarked) and answer again.
0

Now consider "CC[C@H]1OC(=O)[C@H](C)C(=O)[C@H](C)[C@@H](O[C@@H]2O[C@H](C)C[C@H](N(C)C)[C@H]2O)[C@](C)(OC)C[C@@H](C)C2=N[C@H](COCc3ccc(F)cc3)CN3C(=O)O[C@@]1(C)[C@H]3[C@H]2C" and answer again.
1

Now consider CC[C@H]1OC(=O)[C@H](C)C(=O)[C@H](C)[C@@H](O[C@@H]2O[C@H](C)C[C@H](N(C)C)[C@H]2O)[C@](C)(OC)C[C@@H](C)C2=NC3CN(C=O)CC3N3C(=O)O[C@@]1(C)[C@H]3[C@H]2C (some centres unmarked) and answer again.
0
